Hey, just so you know, these numbers are from ChEMBL document CHEMBL5376013.

# System: SF-539
# test_name: Antitumor activity against human SF-539 cells assessed as growth inhibition at 10 uM relative to control
# Type: functional
# test_settings: read-out: GI
# inhibition of growth at 10 µM per record follows
# value in %; strip the unit string

Reported inhibition of growth at 10 µM (SF-539) for entry `N#Cc1c(-c2ccc(Cl)cc2)nc(N/N=C/c2cccc(Br)c2)nc1N1CCOCC1` is 21.2

Reported inhibition of growth at 10 µM (SF-539) for entry `Cc1cc(C)n(-c2nc(-c3ccc(Cl)cc3)c(C#N)c(N3CCOCC3)n2)n1` is 16

Reported inhibition of growth at 10 µM (SF-539) for entry `N#Cc1c(-c2ccc(Cl)cc2)nc(N/N=C/c2ccco2)nc1N1CCOCC1` is 24.7

Reported inhibition of growth at 10 µM (SF-539) for entry `N#Cc1c(-c2ccc(Cl)cc2)nc(N/N=C/c2cccc(O)c2)nc1N1CCOCC1` is 32.2
